# Test system: Saccharomyces cerevisiae
# ASSAY PROCEDURE: protein stability index of tFT-peptide fusion in deletion strain of DAS1 (PSI (0-1 scale)); higher = more stable (slower turnover)
MEASURED QUANTITY: protein stability index

QUERY SEQUENCE	MEASURED ON	REPORTED RESULT
LVVYLSCVACIP	Saccharomyces cerevisiae	0.0442
CTSCGYKFRTNNY	Saccharomyces cerevisiae	0.704
ARWRVLLWRGAS	Saccharomyces cerevisiae	0.628
ARWRVGLWRGAY	Saccharomyces cerevisiae	0.682
PDKRNHRIKLLN	Saccharomyces cerevisiae	0.661
CTSCNYKFRTNN	Saccharomyces cerevisiae	0.681
PDKRNHHIKLLN	Saccharomyces cerevisiae	0.665
CTSCGYKFRHNN	Saccharomyces cerevisiae	0.705

====

# Tested on: Saccharomyces cerevisiae
# ASSAY PROCEDURE: protein stability index of tFT-peptide fusion (C-terminal peptide) (PSI (0-1 scale)); higher = more stable (slower turnover)
# ASSAY SETUP: genetic background: das1 deletion; temperature: 30 C
Catalogue of sequences with associated protein stability index

QUERY SEQUENCE	protein stability index
NILFVMKEGRIY [YJL213W C-terminal 12 aa]	0.681
LFMNAVIKTFKK [DGK1 C-terminal 12 aa]	0.7
PLSKMEDQVFVF [CBR1 C-terminal 12 aa]	0.663
NLNQHVKTHASL [COM2 C-terminal 12 aa]	0.675
FLFHCVHLLLSG [YDR535C C-terminal 12 aa]	0.511
PTQPTVSNKKNN [GPI14 C-terminal 12 aa]	0.725

====

# System: Saccharomyces cerevisiae
# ASSAY PROCEDURE: protein stability index of tFT-peptide fusion (C-terminal peptide) (PSI (0-1 scale)); higher = more stable (slower turnover)
# ASSAY SETUP: genetic background: wild type; temperature: 30 C
Catalogue of sequences with associated protein stability index
MEASURED QUANTITY: protein stability index

QUERY SEQUENCE	MEASURED ON	REPORTED RESULT
ALLIYFLCRCIP	Saccharomyces cerevisiae	0.44
GFDFLHHIVASS	Saccharomyces cerevisiae	0.728
ICVAVESRVSRG	Saccharomyces cerevisiae	0.628
SLPKSSLFAPHL	Saccharomyces cerevisiae	0.715
NSQAIKSTARQK	Saccharomyces cerevisiae	0.707
DVDWVLTLGCLG	Saccharomyces cerevisiae	0.647
LRLPSPLPSPPS	Saccharomyces cerevisiae	0.628
PQSKWLTTFRQK	Saccharomyces cerevisiae	0.713
FIFYYTVLLLCR	Saccharomyces cerevisiae	0.181
LQTLPAPHTPFP	Saccharomyces cerevisiae	0.643

====

# System: Saccharomyces cerevisiae
# ASSAY PROCEDURE: protein stability index of tFT-peptide fusion (C-terminal peptide) (PSI (0-1 scale)); higher = more stable (slower turnover)
# ASSAY SETUP: genetic background: das1 deletion; temperature: 30 C
Catalogue of sequences with associated protein stability index
MEASURED QUANTITY: protein stability index

QUERY SEQUENCE	MEASURED ON	MEASURED QUANTITY	REPORTED RESULT
GVMSICRWMISV	Saccharomyces cerevisiae	protein stability index	0.325
RGLANLIVIVSS	Saccharomyces cerevisiae	protein stability index	0.397
QWRMLTCLMERL	Saccharomyces cerevisiae	protein stability index	0.472
EDRKRNKERRWT	Saccharomyces cerevisiae	protein stability index	0.642
PPAPTPFPPSPR	Saccharomyces cerevisiae	protein stability index	0.669
SCRCIIFVCCFW	Saccharomyces cerevisiae	protein stability index	0.262
REAFVVLAVFFH	Saccharomyces cerevisiae	protein stability index	0.226
APLFPPPPARSL	Saccharomyces cerevisiae	protein stability index	0.661
VGRANLSVIRKV	Saccharomyces cerevisiae	protein stability index	0.636
RDTTQRRRKTAA	Saccharomyces cerevisiae	protein stability index	0.661
AFSISPFRLRMV	Saccharomyces cerevisiae	protein stability index	0.649
WFLLSLSSFVSS	Saccharomyces cerevisiae	protein stability index	0.363
FLFPFLSVLFLL	Saccharomyces cerevisiae	protein stability index	0.479
LRFVCALGYCVW	Saccharomyces cerevisiae	protein stability index	0.485
LIICRSFLCKVR	Saccharomyces cerevisiae	protein stability index	0.193
FGVLFFVFVFVC	Saccharomyces cerevisiae	protein stability index	0.193
VLVCYFCRYISH	Saccharomyces cerevisiae	protein stability index	0.413
LFTSGNSLVLVH	Saccharomyces cerevisiae	protein stability index	0.236
YQKIARVSLAVS	Saccharomyces cerevisiae	protein stability index	0.347
VFIVVEFRLSLY	Saccharomyces cerevisiae	protein stability index	0.174
VEIKSKRMLVVI	Saccharomyces cerevisiae	protein stability index	0.426
CFLLVSLGILCW	Saccharomyces cerevisiae	protein stability index	0.109
FLLPILSSSPVL	Saccharomyces cerevisiae	protein stability index	0.657
VTVWVFVFLRGL	Saccharomyces cerevisiae	protein stability index	0.315
LLSFSQLGYFVL	Saccharomyces cerevisiae	protein stability index	0.633
GLVVWWLSGWLW	Saccharomyces cerevisiae	protein stability index	0.269
LSLVYFAALFSF	Saccharomyces cerevisiae	protein stability index	0.409
FPYARHLSVLLL	Saccharomyces cerevisiae	protein stability index	0.564
KKHKKGQKQKIN	Saccharomyces cerevisiae	protein stability index	0.622
LFSCTQLLPITA	Saccharomyces cerevisiae	protein stability index	0.173
GGGGGGGDVLVW	Saccharomyces cerevisiae	protein stability index	0.265
DYSVIPSLALLP	Saccharomyces cerevisiae	protein stability index	0.657
LSGIILGWSVSG	Saccharomyces cerevisiae	protein stability index	0.63
VGTIVLTCIEVN	Saccharomyces cerevisiae	protein stability index	0.191
LRSVLGWGLFLA	Saccharomyces cerevisiae	protein stability index	0.493
GGWSLFCIVVVV	Saccharomyces cerevisiae	protein stability index	0.179
WFSRCVSLGLCW	Saccharomyces cerevisiae	protein stability index	0.29
RVFVGLVDFLFW	Saccharomyces cerevisiae	protein stability index	0.402
NDSSWEVSLMVG	Saccharomyces cerevisiae	protein stability index	0.616
NFKELMEKSKYR	Saccharomyces cerevisiae	protein stability index	0.677
PFFLLAGITVAC	Saccharomyces cerevisiae	protein stability index	0.177

====

# Test system: Saccharomyces cerevisiae
# ASSAY PROCEDURE: protein stability index of tFT-peptide fusion (C-terminal peptide) (PSI (0-1 scale)); higher = more stable (slower turnover)
# ASSAY SETUP: genetic background: wild type; temperature: 30 C

QUERY SEQUENCE	MEASURED ON	protein stability index
FLRNFKDNRFLQ [YOR121C C-terminal 12 aa]	Saccharomyces cerevisiae	0.697
VDSEGQIRYAKE [YCR087C-A C-terminal 12 aa]	Saccharomyces cerevisiae	0.67
ECPGGCPGVAFI [RTC1 C-terminal 12 aa]	Saccharomyces cerevisiae	0.685
AVENQFFSQKKK [ACS2 C-terminal 12 aa]	Saccharomyces cerevisiae	0.697
KNRFSNGRWGRR [SLD2 C-terminal 12 aa]	Saccharomyces cerevisiae	0.72
IHTPTIPKRSLT [MCX1 C-terminal 12 aa]	Saccharomyces cerevisiae	0.767
HEKRTEEVARYA [YGR026W C-terminal 12 aa]	Saccharomyces cerevisiae	0.66
QVNKPGPLTVPF [MEH1 C-terminal 12 aa]	Saccharomyces cerevisiae	0.716
CVNSASLNLKKD [MXR2 C-terminal 12 aa]	Saccharomyces cerevisiae	0.682
FSVCCKDATEVS [YHR070C-A C-terminal 12 aa]	Saccharomyces cerevisiae	0.682
LLEDIRANYSLN [YLL056C C-terminal 12 aa]	Saccharomyces cerevisiae	0.692
HEVDTEKINIFQ [YML003W C-terminal 12 aa]	Saccharomyces cerevisiae	0.697
DAYHKAAEENKD [MCT1 C-terminal 12 aa]	Saccharomyces cerevisiae	0.693
SSTTEETILVRK [RKM1 C-terminal 12 aa]	Saccharomyces cerevisiae	0.703
IKRLDANTDFNI [MFB1 C-terminal 12 aa]	Saccharomyces cerevisiae	0.668
TKHTPKYLLNTI [YNL179C C-terminal 12 aa]	Saccharomyces cerevisiae	0.662
AGTDKNTHPSSQ [SNT2 C-terminal 12 aa]	Saccharomyces cerevisiae	0.694
HQKARSSYCCIQ [XDJ1 C-terminal 12 aa]	Saccharomyces cerevisiae	0.706
VDMKWGSFPIFQ [YPR1 C-terminal 12 aa]	Saccharomyces cerevisiae	0.7
FQVVSKKKGRKH [SMY2 C-terminal 12 aa]	Saccharomyces cerevisiae	0.72
KGNLPGVKKGIW [MRP2 C-terminal 12 aa]	Saccharomyces cerevisiae	0.668
YWILKSNPTNES [YNL092W C-terminal 12 aa]	Saccharomyces cerevisiae	0.725
WERTMRDLKLIH [ALG1 C-terminal 12 aa]	Saccharomyces cerevisiae	0.64
CLILSQYSILMD [ATG18 C-terminal 12 aa]	Saccharomyces cerevisiae	0.616
LPSINTIFKDML [DOT6 C-terminal 12 aa]	Saccharomyces cerevisiae	0.731

====

# Tested on: Saccharomyces cerevisiae
# ASSAY PROCEDURE: protein stability index of tFT-peptide fusion (C-terminal peptide) (PSI (0-1 scale)); higher = more stable (slower turnover)
# ASSAY SETUP: genetic background: wild type; temperature: 30 C
Catalogue of sequences with associated protein stability index

QUERY SEQUENCE	protein stability index
SAPLLLPPLSSP	0.713
VEPTSDNGVVRR	0.662
GFEAFGPFIPAF	0.681
GVVCVLGFALFV	0.413
LRLFAGTFSGTP	0.698
DIKATRTYNHKV	0.68
LWVTRVYCLLVC	0.0818
WCWCSLVVDGTA	0.571
PSMLFPRTLSPL	0.696
FLGFPVVGVFGS	0.735
PPLPPRPQTHLH	0.728
PRLSLPSAPPRP	0.732
LGPLILDGATDC	0.688
SQPNRESQNTFN	0.711
PSRLSKTLLMGW	0.676
CFTLSLCLAFFF	0.377
PRSLLSPPGSVD	0.704
PHPLSPRPPPSL	0.746
KENEKQRKSHKK	0.687
DRLGDCRKPRPF	0.657
SKGARQRQPPDG	0.598
KWGRFQQVMVIN	0.266
NYDTIYGLHLYT	0.73
ITSALRYLSAVG	0.656
GVLPVDKFLKNW	0.735
HPPPLVPSPSTQ	0.749
PLRDHPAPPHRL	0.665
PPTPPLPPRLPP	0.686
GGVPRNRAQIGV	0.758
LGRFHLACLLFL	0.43
LPTSTRRGGSHG	0.691
GGGKINSLHGAG	0.681
VLALLPLFFYFH	0.504
IGFGPVSCARLF	0.679
FLARPIACPRRV	0.701
FSLFSSPPSLFC	0.672
GLVWRSRDDQLS	0.764
HDSMTQEPQNSA	0.65
GWLVGLGLVFFT	0.514
IHTFSVVVVVAA	0.163
VNYRVWRKRGGR	0.644
